System: basal gastric acid secretion
Test: Inhibition of total acid output in the acute gastric fistula rat
Format: in vivo, Female Sprague-Dawley rats
Conditions: 2 h; 10 mg./kg., intraduodenal route, rat; read-out: %-Inhibition of Total Acid Output After 120 Minutes
Method: The compounds of this invention are also useful as inhibitors of gastric acid secretion and peptic ulcer formation and may be used for the treatment of gastric hyperacidity, gastric erosion, and peptic ulcer. Inhibition of basal gastric acid secretion can be determined by the following procedure. Female Sprague-Dawley rats weighting 140-160 grams are fasted in individual cages for 18-24 hours. […] Total and sediment volume are then recorded with the supernatent volume being used as volume of secretion. […]
REPORTED PROPERTY: inhibition in vivo at 10 mg/kg (%)
Give bare numbers, in %.

compound=CCCCC[C@H](O)CC[C@H]1CCC2(OCC(C)(C)CO2)[C@@H]1CCCCCCC(=O)O observed_result=32
compound=CCCCC[C@@H](CC[C@H]1CCC2(SCCS2)[C@@H]1CCCCCCC(=O)OC)OC(C)=O observed_result=32
compound="CCCCC[C@@H](CC[C@H]1CCC2(OC(C)C(C)O2)[C@@H]1CCCCCCC(=O)OC)OC(C)=O (some centres unmarked)" observed_result=74

Hey, can you go through the list below and give me inhibition in vivo at 10 mg/kg for every item?
1. CCCCC[C@@H](CC[C@H]1CCC2(OCCO2)[C@@H]1CCCCCCC(=O)OC)OC(C)=O
2. CCCCC[C@H](O)CC[C@H]1CCC2(OCC(C)O2)[C@@H]1CCCCCCC(=O)O (some centres unmarked)
3. CCCCC[C@H](O)CC[C@H]1CCC2(OCCO2)[C@@H]1CCCCCCC(=O)O
4. CCCCC[C@H](O)CC[C@H]1CCC2(OCC(CCl)O2)[C@@H]1CCCCCCC(=O)O (some centres unmarked)

**A:**
100
61
63
99

Hey, can you go through the list below and give me inhibition in vivo at 10 mg/kg for every item?
1. CCCCC[C@H](O)CC[C@H]1CCC2(OC(C)C(C)O2)[C@@H]1CCCCCCC(=O)O (some centres unmarked)
2. CCCCC[C@@H](CC[C@H]1CCC2(OCC(CCl)O2)[C@@H]1CCCCCCC(=O)OC)OC(C)=O (some centres unmarked)
3. CCCCC[C@@H](CC[C@H]1CCC2(OCCCO2)[C@@H]1CCCCCCC(=O)OC)OC(C)=O
4. CCCCC[C@H](O)CC[C@H]1CCC2(OCCS2)[C@@H]1CCCCCCC(=O)O (some centres unmarked)

**A:**
1: 57; 2: 26; 3: 60; 4: 39

* * *

system: basal gastric acid secretion; test: Inhibition of total acid output in the acute gastric fistula rat; format: in vivo, Female Sprague-Dawley rats; settings: Rattus norvegicus; Table C; intraduodenal route, 2 hr. collection; read-out: ED50, 2 hr. collection (B)
Fulfilled if ED50 is below 6 mg/kg. Not fulfilled if not; exact matches included in Not fulfilled.

Take a look at these entries with their results.
molecule=CCCCC[C@@H](CC[C@H]1CCC2(OCCO2)[C@@H]1CCCCCCC(=O)OC)OC(C)=O class_assignment=Fulfilled
molecule="CCCCC[C@@H](CC[C@H]1CCC2(OC(C)C(C)O2)[C@@H]1CCCCCCC(=O)OC)OC(C)=O (stereo partly shown)" class_assignment="Not fulfilled"
molecule=CCCCC[C@H](O)CC[C@H]1CCC2(OCCO2)[C@@H]1CCCCCCC(=O)O class_assignment=Fulfilled
molecule="CCCCC[C@H](O)CC[C@H]1CCC2(OC(C)C(C)O2)[C@@H]1CCCCCCC(=O)O (stereo partly shown)" class_assignment="Not fulfilled"

// next entry
**Q:** Just wondering, is ED50 of CCCCC[C@H](O)CC[C@H]1CCC(=O)[C@@H]1CCCCCCC(=O)O [l 9-oxo-15(S)-hydroxyprostanoic acid, 1-15(S)-hydroxy-9-oxo-prostanoic acid, reference compound] below 6 mg/kg?
**A:** Not fulfilled
